Test system: 12-O-tetradecanoylphorbol acetate (TPA)-induced murine ear edema
Assay: TPA-induced murine ear edema test
Type: in vivo, Swiss Webster female mice
Conditions: oral, 30 minutes after TPA; 4 μg TPA/ear; measured 4 hours after TPA; dose in mg/kg not given
observationType: % Change from Control (mouse ear edema)
Kindly report the value followed by its unit.

Problem: Requested read-out: % Change from Control (mouse ear edema). Entry: CCCC[C@H](NC(=O)CCCCCCc1ccccc1)C(=O)N1CC(C)NC(C)C1 (stereo partly shown) [Example 3]
Result: -39%

Problem: Here is the next compound: CCCCCCCCCCCCCCCCNC(=O)[C@@H]1CCCN1 [Example 5a, N-(S)-Hexadecyl-2-pyrrolidinecarboxamide]
Result: -53%

Problem: Now the compound CCCCCCCCCCCCCCCCNC(=O)C(N)CCCC.Cl (stereo not shown) [Example 1]
Result: -25%

Problem: Try this compound too: CCCCC(N)C(=O)NC1CCCCCCCCCCC1.Cl (stereo not shown) [Example 2a]
Result: -60%
